- System: K-562 leukemia
- Assay Info: NCI tumour cell line growth inhibition, 48 h
Test Readout: TGI

                                    compound    result
 0  CC(=O)NNc1nc(C)c(C(/C=C/c2ccc3c(c2)OCO3)=N/Nc2ccccc2)s1  > 100 µM
 1                    CC(=O)NCCCCNCCCNC(C)=O  > 100 µM
 2  COc1ccc2nc3cc(Cl)ccc3c(NCCCCCC(=O)NC(COc3cnc4c(ccc5cccnc54)c3)COc3cnc4c(ccc5cccnc54)c3)c2c1   13.6 µM
 3         c1ccc(CNc2c3c(nc4ccccc24)CCC3)cc1   26.2 µM
 4               COc1ccc(CCn2cnc3ccccc32)cc1  > 100 µM
 5                  CCOC(C[Se]CC(OCC)OCC)OCC  > 100 µM
 6  COC(=O)N[C@H]1CCc2c(Br)c(OC)c(OC)c(OC)c2-c2ccc(SC)c(=O)cc21   15.9 µM
 7  CC1(C)OP23(NC(=O)OC2(C(F)(F)F)c2ccccc2O3)OC1(C)C (stereo not drawn)  > 100 µM
 8  Cn1c(=O)c2c(nc(NCCCCl)n2CC(=O)O)n(C)c1=O  > 100 µM
 9          Cc1cnoc1NC1=CC(=O)C(=O)c2ccccc21   10.9 µM
10  C=CCC(C)C12CCNC(Cc3ccc(O)cc31)C2C (stereo not drawn)  > 100 µM
11  CN(C)c1cccc2c(S(=O)(=O)N[C@H]3CC[C@H]4[C@@H]5CCc6cc(O)ccc6[C@H]5CC[C@]34C)cccc12  > 100 µM
12  CC(=O)O/C=C\OC1CCCC1(c1ccccc1)c1ccccc1 (stereo not drawn)   9.05 µM
